# tgt: T1, CAPRIN-1 protein expressed on the membrane surface of human cancer cells (human, UniProt Q14444 2-709)
# T1 sequence (looked up): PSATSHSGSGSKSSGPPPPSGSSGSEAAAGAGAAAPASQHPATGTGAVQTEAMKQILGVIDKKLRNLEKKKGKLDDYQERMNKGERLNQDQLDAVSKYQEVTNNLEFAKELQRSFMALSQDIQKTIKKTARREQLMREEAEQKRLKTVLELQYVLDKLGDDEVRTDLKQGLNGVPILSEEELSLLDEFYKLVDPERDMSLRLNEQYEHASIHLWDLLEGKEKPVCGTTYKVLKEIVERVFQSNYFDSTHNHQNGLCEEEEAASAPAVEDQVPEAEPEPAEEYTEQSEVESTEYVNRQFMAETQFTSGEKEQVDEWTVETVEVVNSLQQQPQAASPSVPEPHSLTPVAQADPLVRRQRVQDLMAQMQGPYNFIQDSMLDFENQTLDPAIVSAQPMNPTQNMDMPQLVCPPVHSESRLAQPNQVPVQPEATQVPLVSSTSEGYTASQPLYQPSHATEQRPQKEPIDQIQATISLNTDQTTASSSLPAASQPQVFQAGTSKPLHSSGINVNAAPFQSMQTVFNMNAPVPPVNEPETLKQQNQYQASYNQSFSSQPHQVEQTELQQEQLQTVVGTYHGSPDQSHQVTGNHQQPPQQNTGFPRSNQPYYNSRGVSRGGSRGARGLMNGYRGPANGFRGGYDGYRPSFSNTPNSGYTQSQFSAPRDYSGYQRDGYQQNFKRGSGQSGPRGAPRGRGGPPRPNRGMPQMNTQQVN
# assay.name: cell-based or functional assay
observed.property: ADCC cytotoxic activity (51Cr release) on Ramos

[[record]]
binder = "human-rabbit chimeric anti-CAPRIN-1 antibody (antibody, V domains shown) VH: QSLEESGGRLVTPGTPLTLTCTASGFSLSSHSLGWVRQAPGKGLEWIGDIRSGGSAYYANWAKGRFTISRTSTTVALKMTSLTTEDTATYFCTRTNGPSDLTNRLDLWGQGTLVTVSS VL: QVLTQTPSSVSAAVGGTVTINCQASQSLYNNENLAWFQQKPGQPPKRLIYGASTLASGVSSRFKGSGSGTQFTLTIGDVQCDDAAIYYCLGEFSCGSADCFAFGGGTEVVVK"
result = "≥ 15%"


Batch request: ADCC cytotoxic activity (51Cr release) on Ramos for each of the following binders.
1. humanized antibody #2 (antibody, V domains shown) VH: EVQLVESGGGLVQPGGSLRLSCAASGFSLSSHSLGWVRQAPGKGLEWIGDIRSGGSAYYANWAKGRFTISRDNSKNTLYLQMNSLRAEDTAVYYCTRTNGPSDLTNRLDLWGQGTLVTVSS VL: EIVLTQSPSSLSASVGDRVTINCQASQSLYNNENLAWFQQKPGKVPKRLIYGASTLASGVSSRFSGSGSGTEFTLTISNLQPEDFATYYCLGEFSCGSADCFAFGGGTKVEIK
2. humanized antibody #0 (antibody, V domains shown) VH: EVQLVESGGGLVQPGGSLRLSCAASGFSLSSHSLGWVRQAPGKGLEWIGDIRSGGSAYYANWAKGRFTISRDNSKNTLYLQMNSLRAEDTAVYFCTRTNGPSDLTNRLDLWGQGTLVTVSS VL: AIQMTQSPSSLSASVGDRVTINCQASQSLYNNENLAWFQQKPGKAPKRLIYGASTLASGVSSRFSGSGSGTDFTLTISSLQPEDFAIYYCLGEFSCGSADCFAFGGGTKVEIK

[out]
["≥ 18%", "≥ 15%"]

[in] Which ADCC cytotoxic activity (51Cr release) on Ramos is listed for humanized antibody #1 (antibody, V domains shown) VH: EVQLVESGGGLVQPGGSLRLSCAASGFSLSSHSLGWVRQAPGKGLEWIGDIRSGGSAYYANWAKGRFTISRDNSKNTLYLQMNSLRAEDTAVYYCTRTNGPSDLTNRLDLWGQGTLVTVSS VL: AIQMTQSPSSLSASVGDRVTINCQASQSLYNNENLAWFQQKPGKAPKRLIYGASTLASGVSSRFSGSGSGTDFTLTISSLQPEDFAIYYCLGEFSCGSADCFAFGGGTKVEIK ?
[out] ≥ 15%
